Ref: PubChem BioAssay (NCATS)

Target: Cytochrome P450 2D6 (Homo sapiens) (UniProt P10635)
Sequence (P10635 whole entry, looked up): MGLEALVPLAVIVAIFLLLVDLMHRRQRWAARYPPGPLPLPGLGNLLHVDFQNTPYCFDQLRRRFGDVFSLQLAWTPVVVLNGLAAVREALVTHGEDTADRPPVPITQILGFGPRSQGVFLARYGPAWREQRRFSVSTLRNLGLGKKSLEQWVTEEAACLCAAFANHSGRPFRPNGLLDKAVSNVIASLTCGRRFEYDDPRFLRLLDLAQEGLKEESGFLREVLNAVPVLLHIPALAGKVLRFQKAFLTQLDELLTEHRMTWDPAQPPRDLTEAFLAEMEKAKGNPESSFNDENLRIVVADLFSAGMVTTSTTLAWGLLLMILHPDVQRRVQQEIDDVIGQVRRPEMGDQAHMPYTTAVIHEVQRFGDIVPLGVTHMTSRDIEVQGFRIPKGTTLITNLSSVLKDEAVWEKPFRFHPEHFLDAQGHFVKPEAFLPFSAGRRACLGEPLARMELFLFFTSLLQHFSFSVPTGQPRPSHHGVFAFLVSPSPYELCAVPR
Assay: qHTS Assay for Inhibitors and Substrates of Cytochrome P450 2D6 (AID 891);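 also: luciferin methyl ether substrate demethylated by CYP2D6 with NADPH regeneration; nearly all actives have a fitted effect of over 60% in size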
Conditions: recombinant CYP2D6, luciferin-ME EGE luminescence; series mostly up to 11.4 µM
Records with an inconclusive call do not appear. Activity calls are given as the source filed them. Calls follow the shape of the dose curve; as a rule, active = well fitted inhibition curve with a large enough effect; inconclusive = small, poorly fitted or top-dose-only effect; inactive = no such curve, though single readings can be large or run the other way.
One label from this list, please: yes (1) = active, no (0) = inactive

COc1ccc(OC2C=CC(C#Cc3ccc(C(C)(C)C)cc3)OC2CO)cc1 (stereo not given): no (0)
CC(=O)OCC1OC(C#CC(C)(C)C)C=CC1OC(C)=O (stereo not given): no (0)
C=CCC1C=CC(Oc2ccc(F)cc2C)C(CO)O1 (stereo not given): no (0)
CC(=O)OCC1OC(c2cc(C)cc(C)c2)C=CC1OC(C)=O (stereo not given): no (0)
Cc1ccc(C#CC2C=CC(Oc3ccc4c(c3)OCO4)C(CO)O2)c(C)c1 (stereo not given): no (0)

Please let me know the test result on file for COC(=O)C1=C(C)N(Cc2ccccc2)C2=C(C(=O)c3ccccc3)C(c3ccccc3)[C@@](O)(C(=O)OC)C(=O)N2C1c1ccccc1 (stereo not given in full) . no (0)

Please let me know the test result on file for C=CCOC(=O)/C=C/NC(=O)/C=C/C=C/CCCCCCCC(C)O (stereo not given) . no (0)
